System: Mycobacterium tuberculosis
Experiment: Antimycobacterial activity against Mycobacterium tuberculosis H37Rv ATCC 27294 after 14 days by microscopy
Type: functional
Conditions: H37Rv ATCC 27294, 336 h
Measured endpoint: MIC99

• CCCCc1cn(CCOc2ccc(/C=N/NC(=O)c3ccncc3)cc2)nn1 = 0.78 µM
• O=C(N/N=C/c1ccc(OCCn2cc(C3(O)CCCCC3)nn2)cc1)c1ccncc1 = 0.39 µM
• CCCCCn1cc(COc2ccc(/C=N/NC(=O)c3ccncc3)cc2)nn1 = 0.39 µM

----------
System: Mycobacterium tuberculosis
Experiment: Antimycobacterial activity against Mycobacterium tuberculosis H37Rv ATCC 27294 after 14 days by microscopy
Format: functional
Conditions: H37Rv ATCC 27294, 336 h
Measured endpoint: MIC99

• O=C(N/N=C/c1ccc(OCCCn2cc(C3(O)CCCCC3)nn2)cc1)c1ccncc1 = 0.78 µM
• CCC(=O)OCc1cn(CCOc2ccc(/C=N/NC(=O)c3ccncc3)cc2)nn1 = 0.78 µM
• CCC(=O)OCc1cn(CCCOc2ccc(/C=N/NC(=O)c3ccncc3)cc2)nn1 = 0.78 µM
• O=C(N/N=C/c1ccc(OCCn2cc(COc3ccccc3)nn2)cc1)c1ccncc1 = 0.39 µM
• CCCc1cn(CCCOc2ccc(/C=N/NC(=O)c3ccncc3)cc2)nn1 = 0.78 µM

----------
System: Mycobacterium tuberculosis
Experiment: Antimycobacterial activity against Mycobacterium tuberculosis H37Rv ATCC 27294 after 14 days by microscopy
Type: functional
Conditions: H37Rv ATCC 27294, 336 h
The entries below are paired with their reported MIC99.
Measured endpoint: MIC99 (µM)

* O=C(N/N=C/c1ccc(OCCCn2cc(CO)nn2)cc1)c1ccncc1 | 0.78
* O=C(N/N=C/c1ccc(OCCn2cc(COc3ccc(Cl)cc3)nn2)cc1)c1ccncc1 | 0.195
* NNC(=O)c1ccncc1 [ISONIAZID] | 0.39
* CCCCn1cc(COc2ccc(/C=N/NC(=O)c3ccncc3)cc2)nn1 | 0.39
* Cc1ccc(OCc2cn(CCCOc3ccc(/C=N/NC(=O)c4ccncc4)cc3)nn2)cc1 | 0.78
* O=C(N/N=C/c1ccc(OCCCn2cc(COc3ccccc3)nn2)cc1)c1ccncc1 | 0.39
* Cc1ccc(OCc2cn(CCOc3ccc(/C=N/NC(=O)c4ccncc4)cc3)nn2)cc1 | 0.39
* CCCCc1cn(CCCOc2ccc(/C=N/NC(=O)c3ccncc3)cc2)nn1 | 0.39
* O=C(N/N=C/c1ccc(OCCn2cc(-c3ccccn3)nn2)cc1)c1ccncc1 | 0.39
* O=C(N/N=C/c1ccc(OCCn2cc(-c3ccccc3)nn2)cc1)c1ccncc1 | 0.39
